A compilation of IC50 values for Dual specificity protein kinase TTK (Homo sapiens, UniProt P33981) from the published literature.

// below: answered compounds
Quick check: IC50 on Dual specificity protein kinase TTK (Homo sapiens, UniProt P33981), item COc1ccc(NC(=O)c2c(C)nsc2Nc2nccnc2C#N)cn1 ?
> 20000 nM

Ok, now COc1cc(-c2cnn(C)c2)ccc1Nc1ncc2ccnc(-c3cncnc3)c2n1
200 nM

Ok, now CCc1ccccc1NC(=O)c1c(C)nsc1Nc1cnc2ccc(Cl)cc2n1
> 20000 nM

Ok, now CN1CCC(NC(=O)c2ccc(Nc3nc(NC4CCCCC4)c4c(C#N)c[nH]c4n3)c3c2OCCO3)CC1
< 100 nM

Ok, now N#Cc1c[nH]c2nc(Nc3ccc(N4CCCC4=O)c4c3OCCO4)nc(NC3CCCCCC3)c12
< 50 nM

Ok, now Cn1cc(-c2ccc(Nc3nc(NC4CCCCCC4)c4c(C#N)c[nH]c4n3)c3c2OCCO3)cn1
50 to 200 nM

Ok, now C=CCNc1nc(Nc2ccc(S(=O)(=O)N3CCC(N4CCOCC4)CC3)cc2OC)nc2[nH]cc(C#N)c12
< 100 nM

Turning to the following compound.
Quick check: IC50 on Dual specificity protein kinase TTK (Homo sapiens, UniProt P33981), item COc1cc(-c2c(C)noc2C)ccc1Nc1cc2c(-c3cnn(C)c3)cccc2cn1 ?
95 nM
